- system-name: 5-hydroxytryptamine receptor 1B (Homo sapiens, UniProt P28222)
- Sequence (P28222 whole entry): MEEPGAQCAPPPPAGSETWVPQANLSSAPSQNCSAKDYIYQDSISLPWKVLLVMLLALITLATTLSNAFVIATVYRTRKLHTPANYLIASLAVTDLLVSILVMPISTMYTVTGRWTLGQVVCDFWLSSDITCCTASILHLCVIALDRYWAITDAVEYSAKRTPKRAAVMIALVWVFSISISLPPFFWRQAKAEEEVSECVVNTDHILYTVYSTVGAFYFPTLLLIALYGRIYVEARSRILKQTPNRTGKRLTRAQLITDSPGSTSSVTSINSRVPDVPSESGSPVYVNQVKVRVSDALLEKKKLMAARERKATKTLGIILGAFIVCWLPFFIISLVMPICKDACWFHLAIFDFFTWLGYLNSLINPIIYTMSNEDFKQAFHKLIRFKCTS
endpoint: Ki

>>> result("NCCC(=O)Nc1ccc2cnn(S(=O)(=O)c3cccc4ccccc34)c2c1")
"> 2000 nM"

----------
- system-name: 5-hydroxytryptamine receptor 1A (Homo sapiens)
- Sequence (P08908 whole entry): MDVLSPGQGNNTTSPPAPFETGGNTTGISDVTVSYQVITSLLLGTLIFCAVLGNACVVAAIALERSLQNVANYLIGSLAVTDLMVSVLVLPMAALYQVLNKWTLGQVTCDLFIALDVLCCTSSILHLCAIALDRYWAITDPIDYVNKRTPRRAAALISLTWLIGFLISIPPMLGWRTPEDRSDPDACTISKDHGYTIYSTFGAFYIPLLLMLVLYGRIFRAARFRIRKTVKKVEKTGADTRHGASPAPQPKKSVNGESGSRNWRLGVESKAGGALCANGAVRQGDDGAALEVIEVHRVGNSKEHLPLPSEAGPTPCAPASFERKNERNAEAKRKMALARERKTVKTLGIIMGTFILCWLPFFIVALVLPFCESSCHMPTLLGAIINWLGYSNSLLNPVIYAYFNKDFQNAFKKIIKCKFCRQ
pKi: −log10 of the molar value.
endpoint: pKi

>>> numeric_readout("NCCC(=O)Nc1ccc2cnn(S(=O)(=O)c3cccc4ccccc34)c2c1")
5.19

----------
- system-name: 5-hydroxytryptamine receptor 2C (Homo sapiens, UniProt P28335)
- Sequence (P28335 whole entry): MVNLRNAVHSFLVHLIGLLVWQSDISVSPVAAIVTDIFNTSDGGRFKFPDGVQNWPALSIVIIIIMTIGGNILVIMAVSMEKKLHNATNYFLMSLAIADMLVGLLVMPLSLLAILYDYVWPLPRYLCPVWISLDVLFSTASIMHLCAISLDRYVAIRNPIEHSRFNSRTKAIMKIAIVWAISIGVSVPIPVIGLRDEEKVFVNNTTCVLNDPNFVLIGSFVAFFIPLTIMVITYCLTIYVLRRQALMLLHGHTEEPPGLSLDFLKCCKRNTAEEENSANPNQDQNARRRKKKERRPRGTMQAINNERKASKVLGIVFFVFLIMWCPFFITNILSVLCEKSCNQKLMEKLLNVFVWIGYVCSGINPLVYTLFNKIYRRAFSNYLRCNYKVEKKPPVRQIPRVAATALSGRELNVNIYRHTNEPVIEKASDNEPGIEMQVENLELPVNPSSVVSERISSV
endpoint: Ki

>>> result("NCCC(=O)Nc1ccc2cnn(S(=O)(=O)c3cccc4ccccc34)c2c1")
"> 2000 nM"

----------
- system-name: UniProtKB P14416
- Sequence (P14416 whole entry): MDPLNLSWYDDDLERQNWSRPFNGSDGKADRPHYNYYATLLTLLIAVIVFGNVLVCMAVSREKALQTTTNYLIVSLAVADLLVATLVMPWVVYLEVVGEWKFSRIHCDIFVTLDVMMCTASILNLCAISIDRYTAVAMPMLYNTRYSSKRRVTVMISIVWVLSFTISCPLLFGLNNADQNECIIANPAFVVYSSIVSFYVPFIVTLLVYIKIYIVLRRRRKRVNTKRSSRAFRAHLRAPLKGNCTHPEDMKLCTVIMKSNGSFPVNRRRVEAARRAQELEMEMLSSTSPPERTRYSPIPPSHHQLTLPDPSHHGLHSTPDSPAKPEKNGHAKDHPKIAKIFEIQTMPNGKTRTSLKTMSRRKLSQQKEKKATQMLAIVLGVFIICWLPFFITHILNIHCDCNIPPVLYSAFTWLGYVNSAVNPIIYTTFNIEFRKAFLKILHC
endpoint: Ki

>>> result("NCCC(=O)Nc1ccc2cnn(S(=O)(=O)c3cccc4ccccc34)c2c1")
"> 2000 nM"
